FYI, the data here is from patent US10975099B2.

test: Pharmacokinetic evaluation of the release of naltrexone from Compound 4 in rats following a single intramuscular injection; assay type: in vivo, Sprague-Dawley rats; conditions: male, Sprague-Dawley, rat, plasma, intramuscular, 48.3 mg/animal, rat plasma, individual animals Rat 1-5, day 4 after single IM dose of Compound 4; read-out: Compound 4 conc.
propertyName: concentration at 4 day

## Input So what's the measured concentration at 4 day for this one? O=C(Cc1ccc(CC(=O)Oc2ccc3c4c2O[C@H]2C(=O)CC[C@@]5(O)[C@@H](C3)N(CC3CC3)CC[C@]425)s1)Oc1ccc2c3c1O[C@H]1C(=O)CC[C@@]4(O)[C@@H](C2)N(CC2CC2)CC[C@]314 [Compound 4]
## Output < 0.5 ng/mL
